- assay: Stability determination of amidite in solvent after 24 hours (HPLC-MS, UV 254 nm)
- Assay type: physicochemical
- conditions-used: solvent NMP; room temperature; grades 1-3, key not given
observed-property: Stability at 24 hours

compound	measured-result
COc1ccc(C(OCC2OC(n3cc(C)c(=O)[nH]c3=O)CC2OP2OC(c3ccccc3)C3CCCN32)(c2ccccc2)c2ccc(OC)cc2)cc1 [L-DNA T-DMF]	3
COc1ccc(C(OCC23COC(C(n4cc(C)c(=O)[nH]c4=O)O2)C3OP2OC(c3ccccc3)C3CCCN32)(c2ccccc2)c2ccc(OC)cc2)cc1 [D-LNA T-DMF]	3
COc1ccc(C(OCC2OC(n3cc(C)c(=O)[nH]c3=O)CC2OP2OC(c3ccccc3)C3CCCN32)(c2ccccc2)c2ccc(OC)cc2)cc1 [D-DNA T-DMF]	3
COc1ccc(C(OCC23COC(C(n4cc(C)c(=O)[nH]c4=O)O2)C3OP2OC(c3ccccc3)C3CCCN32)(c2ccccc2)c2ccc(OC)cc2)cc1 [L-LNA T-DMF]	2
COc1ccc(C(OCC23COC(C(n4cnc5c(=O)[nH]c(N=CN(C)C)nc54)O2)C3OP2OC(c3ccccc3)C3CCCN32)(c2ccccc2)c2ccc(OC)cc2)cc1 (centres unmarked)	3

====

- assay: Stability determination of amidite in solvent after 24 hours (HPLC-MS, UV 254 nm)
- Assay type: physicochemical
- conditions-used: solvent DMSO; room temperature; grades 1-3, key not given
observed-property: Stability at 24 hours

compound	observed-property	measured-result
COc1ccc(C(OCC23COC(C(n4cc(C)c(=O)[nH]c4=O)O2)C3OP2OC(c3ccccc3)C3CCCN32)(c2ccccc2)c2ccc(OC)cc2)cc1 [D-LNA T-DMF]	Stability at 24 hours	3
COc1ccc(C(OCC2OC(n3cnc4c(=O)[nH]c(N=CN(C)C)nc43)CC2OP2OC(c3ccccc3)C3CCCN32)(c2ccccc2)c2ccc(OC)cc2)cc1 [D-DNA G-DMF]	Stability at 24 hours	3
COc1ccc(C(OCC2OC(n3cnc4c(=O)[nH]c(N=CN(C)C)nc43)CC2OP2OC(c3ccccc3)C3CCCN32)(c2ccccc2)c2ccc(OC)cc2)cc1 [L-DNA G-DMF]	Stability at 24 hours	3
COc1ccc(C(OCC2OC(n3cc(C)c(=O)[nH]c3=O)CC2OP2OC(c3ccccc3)C3CCCN32)(c2ccccc2)c2ccc(OC)cc2)cc1 [D-DNA T-DMF]	Stability at 24 hours	3
COc1ccc(C(OC[C@@]23CO[C@@H]([C@H](n4cnc5c(=O)[nH]c(NC(=O)C(C)C)nc54)O2)[C@@H]3O[P@]2O[C@H](c3ccccc3)[C@@H]3CCCN32)(c2ccccc2)c2ccc(OC)cc2)cc1 [L-LNA G-iBu]	Stability at 24 hours	3
COc1ccc(C(OCC23COC(C(n4cnc5c(=O)[nH]c(N=CN(C)C)nc54)O2)C3OP2OC(c3ccccc3)C3CCCN32)(c2ccccc2)c2ccc(OC)cc2)cc1 [D-LNA G-DMF]	Stability at 24 hours	1
COc1ccc(C(OCC2OC(n3cc(C)c(=O)[nH]c3=O)CC2OP2OC(c3ccccc3)C3CCCN32)(c2ccccc2)c2ccc(OC)cc2)cc1 [L-DNA T-DMF]	Stability at 24 hours	3
COc1ccc(C(OCC23COC(C(n4cc(C)c(=O)[nH]c4=O)O2)C3OP2OC(c3ccccc3)C3CCCN32)(c2ccccc2)c2ccc(OC)cc2)cc1 [L-LNA T-DMF]	Stability at 24 hours	2
